- ASSAY INFO: qHTS assay for small molecule disruptors of the mitochondrial membrane potential - cell viability (AID 720634); further: nearly all actives have a fitted effect of over 20% in size
- TEST CONTEXT: HepG2 viability, ATP luminescence (CellTiter-Glo), 1 h; series mostly up to 83.2 µM
Inconclusive results are not listed. The source made the active and inactive calls. The call rests on the fitted dose curve.
Classes used: Yes = active, No = inactive

| MOLECULE | ASSIGNED CLASS |
| --- | --- |
| CN(C)c1ccc(N)cc1 | No |
| C[N+]1(C)[C@@H]2CC[C@H]1CC(OC(=O)C(CO)c1ccccc1)C2 (stereo partly drawn) | No |
| ClC1=C(Cl)[C@]2(Cl)[C@@H]3[C@H]4C[C@H]([C@@H]5O[C@H]45)[C@@H]3[C@@]1(Cl)C2(Cl)Cl | No |
| CCC1(CC)C(=O)N=C(O)NC1=O | No |
| CCCC[N+]1(C)CCCC1 (tested in a mixture with another compound) | No |
| C=CCBr | No |
| CC(C)N(C(=O)SC/C(Cl)=C/Cl)C(C)C | Yes |
| O=S(=O)(O)F | No |
| CCCCC(CC)COC(=O)OOC(C)(C)C (stereo not drawn) | No |
| O=NN(CCO)CCO | No |
| CNC(=O)O/N=C(\C)C(C)S(C)(=O)=O (stereo not drawn) | No |
| S=C=NCCc1ccccc1 | No |
| CCN(CC)Cc1nccn1-c1ccc([N+](=O)[O-])cc1C(=O)c1ccccc1Cl | No |

====

- ASSAY INFO: A CellTox Green Cytotoxicity Assay to monitor cytotoxicity in HepG2 cells - 40 hour (AID 1224879); further: nearly all actives have a fitted effect of over 40% in size
- TEST CONTEXT: CellTox Green fluorescence; series mostly up to 76.8 µM
- Excerpt: National Center for Advancing Translational Sciences [NCATS] NIH Chemical Genomics Center [NCGC] U.S. Environmental Protection Agency [EPA] National Institutes of Environmental Health Sciences [NIEHS] National Toxicology Program [NTP] Cell-based models are critical for drug discovery. […] Viable cells produce no appreciable increases in fluorescence. Therefore, the fluorescence signal produced by the binding interaction with dead cell DNA is proportional to cytotoxicity. […]
Inconclusive results are not listed. Calls of active or inactive are those of the source. Calls follow the shape of the dose curve; as a rule, active = well fitted activation curve with a large enough effect in the repeat runs; inconclusive = weak or mixed curves; inactive = flat fitted curve, though single readings scatter.
Possible outcomes: active, inactive

| MOLECULE | ASSIGNED CLASS |
| --- | --- |
| CC(=O)C(Cl)C(=O)N(C)C (configuration not stated) | inactive |
| CNN | inactive |
| COCCC#N | inactive |
| C[N+]1(C)[C@@H]2CC[C@H]1CC(OC(=O)C(CO)c1ccccc1)C2 (some centres not stated) | inactive |
| COc1c2c(cc3c1OCO3)CCN(C)C2 | inactive |
| CSC(C)(C)/C=N/O | inactive |
| Oc1ccc2[nH]cc(CCCCN3CC=C(c4ccccc4)CC3)c2c1 | active |
| ClC(Cl)C(Cl)(Cl)Cl | inactive |
| Nc1nc(N)nc(Cl)n1 | inactive |
| C=CCBr | inactive |
| O=[N+]([O-])[O-].[Tl+] | inactive |
| CC(C)NCC(O)c1ccccc1Cl (configuration not stated) | inactive |
| CCCCCON=O | inactive |
| CCN(CC)C(=O)N[C@@H]1C=C2c3cccc4[nH]cc(c34)C[C@@H]2N(C)C1 | inactive |
| [C-]1=CC=CC1.[Cl][Zr+2][Cl].c1cc[cH-]c1 | inactive |
| COC(=O)c1ccccc1S(=O)(=O)NC(=O)Nc1nc(C)nc(OC)n1 | inactive |
| Fc1ccc(C(OCCN2CCN(CCCc3ccccc3)CC2)c2ccc(F)cc2)cc1 | active |
| CCCCC/C=C\C/C=C\C/C=C\C/C=C\CCCC(=O)NCC(=O)O | inactive |
| ClC1(Cl)C2(Cl)C3(Cl)C4(Cl)C(Cl)(Cl)C5(Cl)C3(Cl)C1(Cl)C5(Cl)C24Cl (configuration not stated) | inactive |
| S=C=Nc1ccccc1 | inactive |
| c1ccc2c(c1)cc1ccc3cccc4ccc2c1c34 | active |
| CCCC[N+]1(C)CCCC1 (tested in a mixture with another compound) | inactive |
| [F][Sn]([c]1ccccc1)([c]1ccccc1)[c]1ccccc1 | active |
| O.O.O.O.O.O.O.O=S(=O)([O-])[O-].[Co+2] | inactive |
| CCCCC(CC)COC(=O)c1ccccc1C(=O)OCC(CC)CCCC (configuration not stated) | inactive |
| Cc1c([N+](=O)[O-])cc2c(c1[N+](=O)[O-])C(C)(C)CC2(C)C | inactive |
| CO/N=C(\C(=O)OC)c1ccccc1CO/N=C(\C)c1cccc(C(F)(F)F)c1 | inactive |

====

- ASSAY INFO: qHTS RealTime-Glo MT Cell Viability Assay in HEK293 cells - 24 hour (AID 1224886); further: nearly all actives have a fitted effect of over 50% in size
- TEST CONTEXT: RealTime-Glo luminescence; series mostly up to 76.8 µM
Records with an inconclusive call do not appear. Active and inactive are the calls of the source. Calls follow the shape of the dose curve; as a rule, active = well fitted cell-killing curve with a large enough effect in the repeat runs; inconclusive = weak or mixed curves, or effect the other way; inactive = flat fitted curve, though single readings scatter.
Classes used: y (active), n (inactive)

| MOLECULE | ASSIGNED CLASS |
| --- | --- |
| Cc1ccc([N+](=O)[O-])[c]2c1[O][Hg]2 | y |
| CCN(CC)C(=O)N[C@@H]1C=C2c3cccc4[nH]cc(c34)C[C@@H]2N(C)C1 | n |
| CCOC(=O)CCN(SN(C)C(=O)Oc1cccc2c1OC(C)(C)C2)C(C)C | n |
| O=S1(=O)OCC2C(CO1)C1(Cl)C(Cl)=C(Cl)C2(Cl)C1(Cl)Cl (configuration not stated) | y |
| [O]=[Cr][O][Cr]=[O] | n |
| O=c1[nH]c2cc(Cl)ccc2n1C1CCNCC1 | n |
| CC(=O)[O-].CC(=O)[O-].O.O.[Zn+2] | n |
| [Cl][Hg][c]1ccccc1 | y |
| CCOP(=O)(OCC)Oc1cc(C)nc(C(C)C)n1 | n |
| COc1ccc(Cc2nccc3cc(OC)c(OC)cc23)cc1OC | y |
| CC(Cc1ccc2c(c1)OCO2)NO (configuration not stated) | n |
| Fc1ccc(C(OCCN2CCN(CCCc3ccccc3)CC2)c2ccc(F)cc2)cc1 | y |
| Cc1cccc(Cc2cnc[nH]2)c1C | n |
| Cc1cnc2c(C(=O)O)c(Cl)ccc2c1 | n |
| CC(Cl)CCl (configuration not stated) | n |
| ClC1=C(Cl)[C@]2(Cl)[C@@H]3[C@H]4C[C@H]([C@@H]5O[C@H]45)[C@@H]3[C@@]1(Cl)C2(Cl)Cl | n |
| CC[C@H](C)[C@H]1O[C@]2(C=C[C@@H]1C)C[C@@H]1C[C@@H](C/C=C(\C)[C@@H](O[C@H]3C[C@H](OC)[C@@H](O[C@H]4C[C@H](OC)[C@@H](NC)[C@H](C)O4)[C@H](C)O3)[C@@H](C)/C=C/C=C3\CO[C@@H]4[C@H](O)C(C)=C[C@@H](C(=O)O1)[C@]34O)O2 | y |
| CCNc1nc(NC(C)C(C)C)nc(SC)n1 (configuration not stated) | n |
| CCN1CCC2(CC1)COc1cc3c(cc12)N(C(=O)c1ccc(-c2ccc(-c4nnc(C)o4)cc2C)cc1)CC3 | y |
| CCC(C)Br (configuration not stated) | n |
| COC(=O)/C=C(\C)OP(=O)(OC)OC | n |
| CCCCCON=O | n |

====

- ASSAY INFO: qHTS assay for small molecule disruptors of the mitochondrial membrane potential - cell viability (AID 720634); further: nearly all actives have a fitted effect of over 20% in size
- TEST CONTEXT: HepG2 viability, ATP luminescence (CellTiter-Glo), 1 h; series mostly up to 83.2 µM
Inconclusive results are not listed. Active and inactive are the calls of the source. Calls come from the whole dose curve.
Outcomes: active, inactive

| COMPOUND | ASSIGNED CLASS |
| --- | --- |
| O=C(NC(=O)c1ccccc1Cl)Nc1ccc(OC(F)(F)F)cc1 | inactive |
| CC(C)N(C(=O)CCl)c1ccccc1 | inactive |
| CCC[CH2][Sn]([CH2]CCC)([O]C(C)=O)[O]C(C)=O | inactive |
| N#CC(C#N)=NNc1cccc(Cl)c1 | inactive |
| CNC(=O)CSP(=O)(OC)OC | inactive |
| CC(C)c1c(CN(C)C(C)Cc2ccccc2)n(C)n(-c2ccccc2)c1=O (stereo not given) | inactive |
| C=Cc1cccc(CCl)c1 | inactive |
| CCCCCCC[CH2][Sn]([Cl])([Cl])[CH2]CCCCCCC | inactive |
| CCN(CC)C(=O)N[C@@H]1C=C2c3cccc4[nH]cc(c34)C[C@@H]2N(C)C1 | inactive |
| Cc1cccc(Cc2cnc[nH]2)c1C | inactive |
| COP(=O)(OC)Oc1ccc([N+](=O)[O-])cc1 | inactive |
| N#CSCc1ccccc1 | inactive |
| ClC(Cl)C(Cl)(Cl)Cl | inactive |
| Cc1cc2c3c(c1)C(c1ccccc1)=N[C@@H](NC(=O)c1ccncc1)C(=O)N3CC2 | inactive |
| BrCC(Br)(Br)Br | inactive |
| Clc1ccc(C(c2ccc(Cl)cc2)C(Cl)Cl)cc1 | inactive |
| N#Cc1sc2c(=O)c3ccccc3c(=O)c=2sc1C#N | active |
| S=C=Nc1ccccc1 | inactive |
| CC(C)Br | inactive |
| CC[C@H](C)[C@H]1O[C@]2(C=C[C@@H]1C)C[C@@H]1C[C@@H](C/C=C(\C)[C@@H](O[C@H]3C[C@H](OC)[C@@H](O[C@H]4C[C@H](OC)[C@@H](NC)[C@H](C)O4)[C@H](C)O3)[C@@H](C)/C=C/C=C3\CO[C@@H]4[C@H](O)C(C)=C[C@@H](C(=O)O1)[C@]34O)O2 | active |
| CCO/N=C(\CC)C1=C(O)CC(c2c(C)cc(C)cc2C)CC1=O (stereo not given) | inactive |
| COC(=O)C(C)N(C(=O)c1ccco1)c1c(C)cccc1C (stereo not given) | inactive |
| CN(C)C(=S)SSC(=S)N(C)C | inactive |
| CO/N=C(\C(=O)OC)c1ccccc1CO/N=C(\C)c1cccc(C(F)(F)F)c1 | active |
| Nc1nc(N)c(N)c(N)n1 | inactive |
